tested.system: T1, human uPAR (recombinant protein used in ELISA and BLI) (human, UniProt Q03405 23-305, limits assumed)
T1 construct: Whole entry named; also called biotinylated human uPAR
T1 sequence (Q03405 23-305 limits assumed): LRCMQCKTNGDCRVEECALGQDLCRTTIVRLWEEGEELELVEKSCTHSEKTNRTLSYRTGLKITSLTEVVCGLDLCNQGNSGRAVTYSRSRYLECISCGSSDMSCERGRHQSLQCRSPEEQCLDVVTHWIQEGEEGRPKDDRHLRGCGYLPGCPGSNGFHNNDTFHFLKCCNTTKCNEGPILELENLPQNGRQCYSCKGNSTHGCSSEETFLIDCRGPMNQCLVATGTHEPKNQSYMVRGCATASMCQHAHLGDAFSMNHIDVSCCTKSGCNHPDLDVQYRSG
measurement.notes: BLI (Octet HTX)
observation.type: pKd
Answers are plain numbers, as −log10 of the molar value.

Task item: Look at this binder and give its reported pKd. 11857 HC1 + LC2 (humanized) (antibody, V domains shown, detected with anti-human Fc antibody) VH: EVQLVQSGAEVKKPGATVKISCKVSGYTFTDYYMNWVQQAPGKSLEWMGNINPNNGGTDYNQKFQGRVTITADKSTSTAYMELSSLRSEDTAVYYCARSYGSRFPYWGLGTLVTVSS VL: DIQMTQSPSSLSASVGDRVTITCRASQDITNYLSWYQQKPGGTVKLLIFYTAVLQSGFPSRFSGSGSGADFTLTISSLQPEDVATYYCQQGHTLPWTFGGGTKVEIK
Reply: 7.27
